Entries and their measured pIC50 follow.
- Target entity: c-MET (Homo sapiens, UniProt P08581)
- Sequence (P08581 25-1390): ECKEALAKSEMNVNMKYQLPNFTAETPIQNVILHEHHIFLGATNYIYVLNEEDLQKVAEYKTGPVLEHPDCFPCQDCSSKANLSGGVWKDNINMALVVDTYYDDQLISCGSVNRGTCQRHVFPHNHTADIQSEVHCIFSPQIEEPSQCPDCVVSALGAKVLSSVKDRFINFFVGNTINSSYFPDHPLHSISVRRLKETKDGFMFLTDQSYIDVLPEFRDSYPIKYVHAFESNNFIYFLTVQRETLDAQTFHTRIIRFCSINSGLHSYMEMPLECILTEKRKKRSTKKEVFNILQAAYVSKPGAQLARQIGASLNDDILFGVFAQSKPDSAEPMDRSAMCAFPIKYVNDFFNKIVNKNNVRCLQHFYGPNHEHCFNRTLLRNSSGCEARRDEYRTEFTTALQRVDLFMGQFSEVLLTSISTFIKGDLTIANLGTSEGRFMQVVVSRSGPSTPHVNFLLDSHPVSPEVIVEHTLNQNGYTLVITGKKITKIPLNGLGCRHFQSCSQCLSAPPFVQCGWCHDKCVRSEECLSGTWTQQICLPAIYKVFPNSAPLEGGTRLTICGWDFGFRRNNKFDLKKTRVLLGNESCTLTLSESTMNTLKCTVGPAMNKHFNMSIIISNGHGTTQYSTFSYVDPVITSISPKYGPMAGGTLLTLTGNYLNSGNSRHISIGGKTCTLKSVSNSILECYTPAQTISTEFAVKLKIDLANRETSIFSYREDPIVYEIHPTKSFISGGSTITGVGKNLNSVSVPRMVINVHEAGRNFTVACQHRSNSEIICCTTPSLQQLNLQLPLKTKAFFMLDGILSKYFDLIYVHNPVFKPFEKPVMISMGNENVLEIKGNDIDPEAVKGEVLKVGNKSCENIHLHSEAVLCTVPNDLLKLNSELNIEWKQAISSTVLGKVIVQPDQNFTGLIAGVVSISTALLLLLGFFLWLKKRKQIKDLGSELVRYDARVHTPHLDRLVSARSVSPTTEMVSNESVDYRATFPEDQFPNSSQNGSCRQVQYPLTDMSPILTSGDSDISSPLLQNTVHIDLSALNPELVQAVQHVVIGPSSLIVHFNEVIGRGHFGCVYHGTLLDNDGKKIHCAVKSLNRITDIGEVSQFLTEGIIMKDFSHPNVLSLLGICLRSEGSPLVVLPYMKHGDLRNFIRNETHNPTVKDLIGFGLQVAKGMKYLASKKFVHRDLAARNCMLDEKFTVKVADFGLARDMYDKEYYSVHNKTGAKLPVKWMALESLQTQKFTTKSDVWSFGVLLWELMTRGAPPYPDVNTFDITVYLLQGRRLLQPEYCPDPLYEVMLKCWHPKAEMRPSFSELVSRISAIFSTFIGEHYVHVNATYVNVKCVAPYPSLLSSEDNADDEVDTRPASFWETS
- Experimental details: MET cell mechanistic assay (MKN45), phosphorylated MET ELISA
- Protocol conditions: MKN45 cell line; inhibition of phosphorylated MET; 4 hours incubation; at least duplicate experiments; read-out: MET mech IC50
pIC50: −log10 of the molar value.

chem_smiles=C[C@H](c1c(OC(F)F)ccc(F)c1Cl)c1c[nH]c2ncc(-c3cnc([C@H]4CC[C@H](O)CC4)n3C)cc12 target_entity="c-MET (Homo sapiens, UniProt P08581)" observed_value="≥ 7.30"
chem_smiles=CCOc1ccc(F)c(Cl)c1[C@@H](C)c1c[nH]c2ncc(-c3cnn([C@H]4CC[C@H](O)CC4)c3C)cc12 target_entity="c-MET (Homo sapiens, UniProt P08581)" observed_value="≥ 7.30"
chem_smiles=Cc1c(-c2cnc3[nH]cc([C@@H](CF)c4c(OC(F)F)ccc(F)c4Cl)c3c2)cnn1[C@H]1CC[C@H](O)CC1 target_entity="c-MET (Homo sapiens, UniProt P08581)" observed_value="6.00 to 6.70"
chem_smiles=Cc1c(-c2cnc3[nH]cc([C@H](CF)c4c(OC(F)F)ccc(F)c4Cl)c3c2)cnn1[C@H]1CC[C@H](O)CC1 target_entity="c-MET (Homo sapiens, UniProt P08581)" observed_value="≥ 7.30"

We next turn to a different molecule, shown below.
pIC50 reported for this molecule `CC(=O)N1CCC(n2ncc(-c3cnc4[nH]cc([C@H](C)c5c(OC(F)F)ccc(F)c5Cl)c4c3)c2C)CC1` : ≥ 7.30

---

Entries and their measured pIC50 follow.
- Target entity: RON (Homo sapiens, UniProt Q04912)
- Sequence (Q04912 913-1400): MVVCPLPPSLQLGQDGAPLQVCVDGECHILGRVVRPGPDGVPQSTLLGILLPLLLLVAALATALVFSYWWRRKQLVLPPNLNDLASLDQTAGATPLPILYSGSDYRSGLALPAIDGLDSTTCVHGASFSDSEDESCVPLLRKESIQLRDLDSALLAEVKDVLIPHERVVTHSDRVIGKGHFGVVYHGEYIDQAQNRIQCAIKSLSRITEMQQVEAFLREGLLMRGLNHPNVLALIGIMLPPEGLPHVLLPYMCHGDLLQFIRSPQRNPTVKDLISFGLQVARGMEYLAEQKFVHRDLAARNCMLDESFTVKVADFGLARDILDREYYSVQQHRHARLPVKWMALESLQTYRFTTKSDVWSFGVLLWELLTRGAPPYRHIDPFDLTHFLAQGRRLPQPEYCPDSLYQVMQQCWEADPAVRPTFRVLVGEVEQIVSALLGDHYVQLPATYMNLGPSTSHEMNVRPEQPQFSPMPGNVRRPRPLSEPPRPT
- Experimental details: sfRON cell mechanistic assay (HeLa), phosphorylated RON ELISA
- Protocol conditions: HeLa cells transfected with sfRON; inhibition of phosphorylated RON; four hours incubation; at least duplicate experiments; read-out: sfRON mech IC50
- Procedure: The cellular activity of the compounds of the present invention against RON may be determined by the following procedure. […] The phosphorylated RON levels were measured by incubating with a Goat polyclonal antibody against phosphorylated RON ([pYpY1238/1239]) followed by an anti-Goat antibody conjugated to HRP. Signal was measured on a Wallac Victor plate reader with luminance. […] IC50 values were determined from the percent of control data using a standard four-parameter model. […]
pIC50: −log10 of the molar value.

compound="COc1ccc(F)c(Cl)c1[C@@H](C)c1c[nH]c2ncc(-c3cnn([C@H]4CC[C@H](C(N)=O)CC4)c3C)cc12 [Example 18]" observed_value="6.00 to 6.70"
compound="COc1ccc(F)c(Cl)c1[C@@H](C)c1c[nH]c2ncc(-c3cnn(C)c3CO)cc12 [Example 44]" observed_value="< 6.00"
compound="Cc1c(-c2cnc3[nH]cc([C@H](C)c4c(O)ccc(F)c4Cl)c3c2)cnn1[C@H]1CC[C@H](O)CC1 [Example 102]" observed_value="6.00 to 6.70"

pIC50 reported for this compound Cc1c(-c2cnc3[nH]cc([C@H](C)c4c(OCC(F)(F)F)ccc(F)c4Cl)c3c2)cnn1[C@H]1CC[C@H](O)CC1 [Example 105] : ≥ 6.70

pIC50 reported for this compound COc1c(F)ccc(Cl)c1C(C)c1c[nH]c2ncc(-c3cnn([C@H]4CC[C@H](O)CC4)c3C)cc12 (stereo partly shown) [Example 112] : < 6.00

pIC50 reported for this compound Cc1c(-c2cnc3[nH]cc([C@H](C)c4c(OC(F)F)ccc(F)c4Cl)c3c2)cnn1[C@H]1C[C@@](C)(O)C1 [Example 79] : 6.00 to 6.70

pIC50 reported for this compound COc1ccc(F)c(Cl)c1[C@@H](C)c1c[nH]c2ncc(-c3c(C)nn(C)c3CO)cc12 [Example 45] : < 6.00

pIC50 reported for this compound COc1ccc(F)c(Cl)c1[C@@H](C)c1c[nH]c2ncc(-c3cnn([C@H]4CC[C@@H](N(C)C)CC4)c3C)cc12 [Example 54] : 6.00 to 6.70

pIC50 reported for this compound Cc1c(-c2cnc3[nH]cc([C@H](C)c4c(OC(F)F)ccc(F)c4Cl)c3c2)cnn1C1CCNCC1 [Example 96] : ≥ 6.70

pIC50 reported for this compound COc1ccc(F)c(Cl)c1[C@H](CF)c1c[nH]c2ncc(-c3cnn([C@H]4CC[C@H](O)CC4)c3C)cc12 [Example 120] : < 6.00

pIC50 reported for this compound COc1nn([C@H]2CC[C@H](O)CC2)cc1-c1cnc2[nH]cc([C@H](C)c3c(OC(F)F)ccc(F)c3Cl)c2c1 [Example 100] : ≥ 6.70

pIC50 reported for this compound COc1ccc(F)c(Cl)c1[C@@H](C)c1c[nH]c2ncc(-c3cn(C)nc3Cl)cc12 [Example 60] : < 6.00

pIC50 reported for this compound COc1ccc(F)c(Cl)c1[C@@H](C)c1c[nH]c2ncc(-c3cnn([C@H]4CC[C@@H](N5CCNCC5)CC4)c3C)cc12 [Example 56] : < 6.00
